- assay system: Endothelin-1 receptor (Homo sapiens, UniProt P25101)
- Sequence (P25101 whole entry): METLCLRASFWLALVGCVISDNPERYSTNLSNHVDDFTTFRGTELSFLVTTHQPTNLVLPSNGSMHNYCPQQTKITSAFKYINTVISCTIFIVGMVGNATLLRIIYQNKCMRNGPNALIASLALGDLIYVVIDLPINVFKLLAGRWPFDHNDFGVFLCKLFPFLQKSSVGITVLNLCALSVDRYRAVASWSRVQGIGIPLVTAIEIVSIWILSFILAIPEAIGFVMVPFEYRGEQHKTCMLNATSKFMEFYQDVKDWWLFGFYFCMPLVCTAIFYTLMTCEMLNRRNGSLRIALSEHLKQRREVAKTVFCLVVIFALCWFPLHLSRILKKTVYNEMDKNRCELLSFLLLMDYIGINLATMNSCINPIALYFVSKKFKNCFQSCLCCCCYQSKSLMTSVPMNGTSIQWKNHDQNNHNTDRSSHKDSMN
- method summary: Receptor binding affinity was determined against [125I]ET1 with recombinant human ETA receptor, expressed in baculovirus-infected Sf9 cells
Hi! Just check whether IC50 is below 8 nM. Below gives yes, equal or above gives no.

[[record]]
entry_smiles = "CCCc1nc(NS(=O)(=O)c2ccc(C(C)(C)C)cc2)c(Oc2ccccc2OC)c(OCCOC(=O)Nc2ccccn2)n1"
answer_label = "no"

[[record]]
entry_smiles = "COc1ccccc1Oc1c(NS(=O)(=O)c2ccc(C(C)C)cn2)nc(N2CCSCC2)nc1OCCOC(=O)Nc1ccccn1"
answer_label = "yes"

[[record]]
entry_smiles = "COc1ccccc1Oc1c(NS(=O)(=O)c2ccc(C(C)C)cn2)nc(N2CCOCC2)nc1OCCOC(=O)Nc1ccccn1"
answer_label = "yes"

[[record]]
entry_smiles = "COc1ccccc1Oc1c(NS(=O)(=O)c2ccc(C(C)(C)C)cc2)nc(C(C)(C)C)nc1OCCOC(=O)Nc1ccccn1"
answer_label = "no"

[[record]]
entry_smiles = "COc1ccccc1Oc1c(NS(=O)(=O)c2ccc(C)cn2)nc(N2CCOCC2)nc1OCCOC(=O)Nc1ccccn1"
answer_label = "yes"

[[record]]
entry_smiles = "COc1ccccc1Oc1c(NS(=O)(=O)c2ccc(C(C)C)cn2)nc(-c2ncccn2)nc1OCCOC(=O)Nc1ccccn1"
answer_label = "yes"

[[record]]
entry_smiles = "CNCC(=O)OCCOc1nc(C)nc(NS(=O)(=O)c2ccc(C(C)(C)C)cc2)c1Oc1ccccc1OC"
answer_label = "no"

[[record]]
entry_smiles = "COc1ccccc1Oc1c(NS(=O)(=O)c2ccc(C(C)(C)C)cc2)nc(C)nc1OCCOC(=O)Nc1ccncc1"
answer_label = "no"

[[record]]
entry_smiles = "COc1ccccc1Oc1c(NS(=O)(=O)c2ccc(C(C)(C)C)cc2)nc(C)nc1OCCOC(=O)Nc1cccnc1"
answer_label = "no"

[[record]]
entry_smiles = "COc1ccccc1Oc1c(NS(=O)(=O)c2ccc(C)cn2)nc(-c2ncccn2)nc1OCCOC(=O)Nc1ccccn1"
answer_label = "yes"

[[record]]
entry_smiles = "COc1ccccc1Oc1c(NS(=O)(=O)c2ccc(C(C)(C)C)cc2)nc(C)nc1OCCOC(=O)c1ccoc1"
answer_label = "no"

[[record]]
entry_smiles = "COc1ccccc1Oc1c(NS(=O)(=O)c2ccc(C(C)C)cn2)nc(N2CCCCC2)nc1OCCOC(=O)Nc1ccccn1"
answer_label = "yes"

[[record]]
entry_smiles = "COc1ccccc1Oc1c(NS(=O)(=O)c2ccc(C(C)(C)C)cc2)nc(C)nc1OCCNC(=O)Nc1ccccn1"
answer_label = "no"

[[record]]
entry_smiles = "COc1ccccc1Oc1c(NS(=O)(=O)c2ccc(C(C)(C)C)cc2)nc(C(C)C)nc1OCCOC(=O)Nc1ccccn1"
answer_label = "yes"

[[record]]
entry_smiles = "COc1ccccc1Oc1c(NS(=O)(=O)c2ccc(C(C)(C)C)cc2)nc(C2CC2)nc1OCCOC(=O)Nc1ccccn1"
answer_label = "yes"

